- assay target: IKZF2 (Homo sapiens, UniProt Q96SW2+Q9UKS7)
- Sequence (Q9UKS7 1-500 isoform Q9UKS7-2): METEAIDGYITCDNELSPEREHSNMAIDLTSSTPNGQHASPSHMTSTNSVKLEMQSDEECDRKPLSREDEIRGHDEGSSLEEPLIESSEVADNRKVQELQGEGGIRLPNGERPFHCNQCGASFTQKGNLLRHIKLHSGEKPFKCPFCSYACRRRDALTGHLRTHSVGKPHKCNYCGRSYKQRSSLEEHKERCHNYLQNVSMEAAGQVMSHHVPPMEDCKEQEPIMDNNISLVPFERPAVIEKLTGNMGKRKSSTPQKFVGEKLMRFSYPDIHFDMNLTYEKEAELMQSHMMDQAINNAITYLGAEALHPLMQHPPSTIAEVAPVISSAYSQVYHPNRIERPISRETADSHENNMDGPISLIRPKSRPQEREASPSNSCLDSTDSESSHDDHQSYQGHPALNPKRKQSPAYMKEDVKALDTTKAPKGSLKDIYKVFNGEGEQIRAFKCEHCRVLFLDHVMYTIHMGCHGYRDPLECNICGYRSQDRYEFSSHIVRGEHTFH
- Sequence (Q96SW2 whole entry): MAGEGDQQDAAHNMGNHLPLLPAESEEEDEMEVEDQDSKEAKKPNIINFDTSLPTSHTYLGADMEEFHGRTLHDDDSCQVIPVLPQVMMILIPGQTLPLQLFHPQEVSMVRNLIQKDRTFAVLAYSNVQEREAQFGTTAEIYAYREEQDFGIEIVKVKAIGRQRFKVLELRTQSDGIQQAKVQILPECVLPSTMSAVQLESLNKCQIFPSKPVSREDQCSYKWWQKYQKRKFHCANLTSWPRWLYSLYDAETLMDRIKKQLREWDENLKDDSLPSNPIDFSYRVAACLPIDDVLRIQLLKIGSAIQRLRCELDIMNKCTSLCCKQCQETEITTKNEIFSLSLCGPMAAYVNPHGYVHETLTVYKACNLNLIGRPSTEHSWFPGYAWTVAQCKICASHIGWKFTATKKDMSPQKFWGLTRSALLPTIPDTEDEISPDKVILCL
- Sequence (Q16531 whole entry partner): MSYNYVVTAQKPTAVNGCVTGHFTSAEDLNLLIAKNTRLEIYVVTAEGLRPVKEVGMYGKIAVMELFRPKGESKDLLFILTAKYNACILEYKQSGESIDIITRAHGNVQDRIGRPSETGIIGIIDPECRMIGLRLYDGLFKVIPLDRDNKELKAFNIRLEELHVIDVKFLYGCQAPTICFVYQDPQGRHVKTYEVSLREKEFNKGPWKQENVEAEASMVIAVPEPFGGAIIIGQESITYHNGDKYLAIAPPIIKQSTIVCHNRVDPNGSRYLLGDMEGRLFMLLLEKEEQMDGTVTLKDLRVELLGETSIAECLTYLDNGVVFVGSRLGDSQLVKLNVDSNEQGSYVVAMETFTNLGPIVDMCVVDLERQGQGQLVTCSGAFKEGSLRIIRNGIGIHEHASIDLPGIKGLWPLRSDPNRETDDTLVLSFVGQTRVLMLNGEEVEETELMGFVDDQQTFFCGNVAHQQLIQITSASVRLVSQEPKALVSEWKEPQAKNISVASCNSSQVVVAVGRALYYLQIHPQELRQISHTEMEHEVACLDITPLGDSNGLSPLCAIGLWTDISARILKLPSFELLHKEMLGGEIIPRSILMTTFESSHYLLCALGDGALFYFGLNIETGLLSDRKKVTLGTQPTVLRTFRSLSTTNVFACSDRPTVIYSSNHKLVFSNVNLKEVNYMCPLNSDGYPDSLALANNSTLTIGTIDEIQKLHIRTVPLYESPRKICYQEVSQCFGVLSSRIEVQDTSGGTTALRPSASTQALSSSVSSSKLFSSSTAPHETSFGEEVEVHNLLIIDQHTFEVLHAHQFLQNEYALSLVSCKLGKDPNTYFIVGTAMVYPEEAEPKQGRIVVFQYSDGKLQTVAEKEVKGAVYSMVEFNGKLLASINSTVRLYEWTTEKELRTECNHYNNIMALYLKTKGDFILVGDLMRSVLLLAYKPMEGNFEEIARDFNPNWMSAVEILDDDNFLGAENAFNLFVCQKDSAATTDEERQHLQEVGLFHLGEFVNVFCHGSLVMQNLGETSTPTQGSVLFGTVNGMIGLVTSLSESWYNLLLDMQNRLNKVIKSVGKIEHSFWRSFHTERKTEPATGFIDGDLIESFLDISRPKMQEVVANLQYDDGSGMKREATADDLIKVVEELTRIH
- assay overview: HEK293 IKZF2 degradation kinetics (HiBiT, timepoints 1-24 h)
- Format: cell-based
- Set-up: expressed in transfected cells
- experimental setup: HEK293, IKZF2; timepoints 1, 2, 3, 4.5 and 24 hour; read-out: Maximum degradation rate Kinact (converted)
observation type: kinact (s⁻¹)

# molecule, kinact, s⁻¹
records = [
    ("O=C1CC[C@@H](N2Cc3cc(C[C@H]4CCCC[C@@H]4NC4CCC(F)(F)CC4)ccc3C2=O)C(=O)N1 (single isomer, unassigned)", 0.000158),
]

P. O=C1CCC(N2Cc3cc(O[C@H]4CCCC[C@@H]4NC4CCC(F)(F)CC4)ccc3C2=O)C(=O)N1 (stereo partly shown)
Q. O=C1CCC(N2Cc3cc(C4CCC(Cc5ccccc5)CC4)ccc3C2=O)C(=O)N1 (stereo not shown)
R. O=C1CCC(N2Cc3cc(N[C@H]4CCCC[C@@H]4NCc4ccccc4)ccc3C2=O)C(=O)N1 (stereo partly shown)
Q: Task field, ranking: reported kinact, descending order. The response must list the labels following the requested ordering.
Ans: P, Q, R
(P: 0.000144 s⁻¹, Q: 3.89e-05 s⁻¹, R: 8.33e-06 s⁻¹)
